Values were extracted from patent US20240140944A1.

Measured pIC50 by item
assayTarget: human recombinant ENPP1 enzymes (Homo sapiens, UniProt P22413)
Sequence (P22413 whole entry): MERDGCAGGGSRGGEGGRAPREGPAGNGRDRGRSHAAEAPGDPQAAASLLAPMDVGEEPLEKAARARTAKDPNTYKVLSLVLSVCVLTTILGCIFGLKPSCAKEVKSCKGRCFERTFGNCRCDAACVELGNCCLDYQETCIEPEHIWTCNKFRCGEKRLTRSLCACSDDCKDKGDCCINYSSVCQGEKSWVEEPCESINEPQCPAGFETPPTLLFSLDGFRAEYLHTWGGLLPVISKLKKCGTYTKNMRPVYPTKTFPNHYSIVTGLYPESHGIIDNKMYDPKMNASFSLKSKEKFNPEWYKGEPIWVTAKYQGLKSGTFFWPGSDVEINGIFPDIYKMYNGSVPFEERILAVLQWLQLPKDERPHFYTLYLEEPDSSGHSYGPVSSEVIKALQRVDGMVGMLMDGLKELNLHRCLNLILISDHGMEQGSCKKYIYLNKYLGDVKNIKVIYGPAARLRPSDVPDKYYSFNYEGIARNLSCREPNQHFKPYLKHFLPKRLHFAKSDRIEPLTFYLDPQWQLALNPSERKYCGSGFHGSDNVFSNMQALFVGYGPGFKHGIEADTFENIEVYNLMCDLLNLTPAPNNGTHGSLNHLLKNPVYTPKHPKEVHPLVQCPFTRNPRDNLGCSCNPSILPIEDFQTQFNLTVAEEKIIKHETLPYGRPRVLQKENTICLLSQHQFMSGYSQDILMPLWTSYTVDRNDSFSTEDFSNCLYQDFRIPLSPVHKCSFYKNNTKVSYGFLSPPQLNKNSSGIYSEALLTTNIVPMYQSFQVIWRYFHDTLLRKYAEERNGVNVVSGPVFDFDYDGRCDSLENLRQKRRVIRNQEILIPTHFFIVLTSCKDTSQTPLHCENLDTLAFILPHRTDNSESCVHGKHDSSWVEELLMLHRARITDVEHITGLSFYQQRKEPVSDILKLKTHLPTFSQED
protocolDescription: ENPP1 Enzyme Assay with cGAMP Substrate (AMP-Glo)
conditionParameters: human recombinant ENPP1 3 ng/reaction, cGAMP 5 μM, 37° C. 90 minutes, average of two or more tests; read-out: Enzymatic activity IC50
pIC50: −log10 of the molar value. Counter-ions that a name gives are not always drawn.

[[record]]
molecule = "NS(=O)(=O)N1CCc2cc(Nc3ccnc4[nH]c(=O)ccc34)ccc2C1 [Example 104, dihydrochloride]"
reportedmeasurement = "5.00 to 6.00"

[[record]]
molecule = "NS(=O)(=O)NCc1cccc(-c2ccnc3c2CCC(=O)N3)c1 [Example 140]"
reportedmeasurement = "> 6.00"

[[record]]
molecule = "NS(=O)(=O)NCc1ccc(-c2ccnc3c2CCC(=O)N3)cc1F [Example 142]"
reportedmeasurement = "> 6.00"


Query string: Determine reported pIC50 for NS(=O)(=O)N1CCc2cc(Nc3ccnc4[nH]c(=O)ccc34)c(F)cc2C1 [Example 106, dihydrochloride] ; test system: human recombinant ENPP1 enzymes (Homo sapiens, UniProt P22413).
Result string: > 6.00

Query string: Determine reported pIC50 for NS(=O)(=O)Nc1ccc(Nc2ccnc3[nH]c(=O)ccc23)cc1 [Example 97, dihydrochloride] ; test system: human recombinant ENPP1 enzymes (Homo sapiens, UniProt P22413).
Result string: > 6.00

Query string: Determine reported pIC50 for NS(=O)(=O)NCc1cccc(Nc2ccnc3[nH]c(=O)ccc23)c1 [Example 89, dihydrochloride] ; test system: human recombinant ENPP1 enzymes (Homo sapiens, UniProt P22413).
Result string: > 6.00

Query string: Determine reported pIC50 for Cl.O=c1ccc2c(-c3ccc(CNC4CC4)c(F)c3)ccnc2[nH]1 [Example 25, hydrochloride] ; test system: human recombinant ENPP1 enzymes (Homo sapiens, UniProt P22413).
Result string: 5.00 to 6.00

Query string: Determine reported pIC50 for Cn1c(=O)ccc2c(N3CCC(CNS(N)(=O)=O)CC3)ccnc21 [Example 128] ; test system: human recombinant ENPP1 enzymes (Homo sapiens, UniProt P22413).
Result string: > 6.00
